System: MS2 coat protein
experimental-details: apparent KD of MS2 coat protein; designed switch direction (-1 OFF switch, 1 ON switch): 1; higher = weaker reporter binding
experimental-context: input ligand: FMN 200 uM
parameter-measured: apparent KD of MS2 coat protein (µM)
Answer with a number only, understood to be in µM.

1. AGUCCUGCCUGAGCAGGACAAAAGCAUGUACAUGAGGAUCACCCAUGUCAUGUACAAGCUUUUUGCUCGUCUUAAUA [Mat - hsa-mir-208a - Mod of JL - D41] (Eterna round: R96, puzzle: Sensor for hsa-mir-208a); 0.624

Tell me the measured apparent KD of MS2 coat protein of UUUCUCAUGUAAGGAUAUGCAGCCGUUUCGGCUGCAGAAGGUACUAUAAUACAUGAGGAUCACCCAUGUCUCUAUUAUUUAGUU [JL SSNG1 1.44] (Eterna round: R96, puzzle: Same State NG 1) , please.
0.0847

What about this sequence? UUUGCAUGACGAGGAUAUCAUUUAUAUCUUGAUUGAGAAGGCGUUCUUUUUUUUACCUAACAUGAGGAUCACCCAUGUGACAGU [JR_SSNG1_Sub050] (Eterna round: R96, puzzle: Same State NG 1)
0.0141

What about this sequence? GUUACAUGAGGAUCACCCAUGUAUGUGUGGGAGUAAGUGUCUUAGGAUAUCUAUCAAUUAAUUUAAGAGAAGGAAGAUUGUUGU [JMF's solution 89] (Eterna round: R96, puzzle: Same State NG 3)
0.116

What about this sequence? AUAAAACAUGAGGAUCACCCAUGUCAACAAAGUCGAGGAUAUGGGCAAAUAAAAUAAGAACCAGAAGGCGAAUAAC [salish99_SS1_r3_003] (Eterna round: R96, puzzle: Same State 1)
0.0397

What about this sequence? GCACUCCUAGGAGCUGCGACAUGAGGAUCACCCAUGUAAUCACAGGAUAUGCGAGUCCGAAUUUUGCAGAAGGGUGAUAAGAAC [Biesanarre] (Eterna round: R96, puzzle: Same State NG 3)
0.404

What about this sequence? GCUCGUGGUAUUGUCUACAUGAGGAUCACCCAUGUAGGUGCGGAGGAUAUUUACGUGUCUCAUGUAGAGAAGGCCGUCACGAGC [SameState NG3 #97] (Eterna round: R96, puzzle: Same State NG 3)
0.0522

What about this sequence? GCCAACUCAUGAGGAUAUGGCACCUUAAUGGUGCCAGAAGGCAUGUCUAUUGACAUGAGGAUCACCCAUGUAUUAUUGUUGGCA [Fiskers NG1ss - 25] (Eterna round: R96, puzzle: Same State NG 1)
0.1

What about this sequence? AAUCGUUUGAUAGGAUAUCGCUAUACAUGAGGAUCACCCAUGUUUACCACACUGGUUUUUCGUACCGAGAAGGAUUCUGAUGAU [JL JR sub007 mod 9] (Eterna round: R96, puzzle: Same State NG 2)
0.0402

What about this sequence? ACAUGAGACUUAGGAUAUCUUGUACCUACAUGUGACAUGAGGAUCACCCAUGUGGUAAGUAUGAGAGAGAAGGAAGAGAUAUGU [Equivalence 37 - Jieux - Same State NG 2] (Eterna round: R96, puzzle: Same State NG 2)
0.0197

What about this sequence? GCGAAAGCGGUAGGAUAUCUAGGAUAUGGGAAAGACUAAGUCUGUAGGUCACCUAACCCAGAAGGAGAGAAGGACAGGGAAACC [pwkr ssNG2 2FMN + F9.34] (Eterna round: R96, puzzle: Same State NG 2)
0.0388

What about this sequence? UGAAUAGUUACAGGAUAUCAUGCGAAAAUUGCGUGAGAAGGGUGGGUGUUGUGCGCUAAGUGCUACAUGAGGAUCACCCAUGUU [SameState NG1 #37] (Eterna round: R96, puzzle: Same State NG 1)
0.325

---

Tested on: MS2 coat protein
experimental-details: apparent KD of MS2 coat protein; higher = weaker reporter binding
experimental-context: Eterna round: R107; input ligand: arginine 13.2 mM
parameter-measured: apparent KD of MS2 coat protein (nM)
Answer with a number only, understood to be in nM.

1. AUGACUUACGGGCGCCAUUUGUAAUAGGAAGGAGCGGCGAGAUAGCCAGGUAGGUCGCCUAUACAUGAGGAUCACCCAUGUCACC [Vegeorbe]; 66.8
2. UGUAUGUGAUUUGAUACCAGACCAGCUGGUGGUACACGAGGAUCACCCGUGUAGGUUUGGGUCCCUUGGCAGCAAAUCGCAUACU [SS Theo B #24 Ms3]; 53.7

Let us examine a further case.
Tell me the measured apparent KD of MS2 coat protein of UACAUGAGGAUCACCCAUGUAUGAAGGGAUACCAGCGACAGUAAGCGCCCUUGGCAGCCCGUGAAUAAAGGGUGGGUAAAAUAGU [Exclusion Theophyline A GF 3] , please.
26.9

---

Test system: MS2 coat protein
experimental-details: apparent KD of MS2 coat protein, switch ON state; designed switch direction (-1 OFF switch, 1 ON switch): -1; higher = weaker reporter binding
experimental-context: FMN input: 0 or 200 uM; Eterna round: R93 (includes R88 designs)
parameter-measured: apparent KD of MS2 coat protein
Give me the value, and tack the unit on after it.

Guide cases for apparent KD of MS2 coat protein, answers given:
1) GGAAAGCAAGGAUAUACAAACAAACAAACAAACAAAAGGGAACAUGAGGAUCACCCAUGUAGAAGGUGCAAACA [Exclusion 2 XX]; 41 nM
2) AUAAAACAUGAGGAUCACCCAUGUGAGGAUAUCCUAAAAGAAAGAAAAAAAAAAAAAUGGAGAAGGCACAAUAA [Amethyst 47]; 119 nM
3) GGAUGUCUAGGAUAUACAUGAGGAUCACCCAUGUGAGAGAAAAAAGUGAGAAAGAAAAGUAGAAGGAGGUGUCG [salish99-ex3-88]; 35.6 nM
4) AUCGAUCGAGGAUAUACAUGAGGAUCACCCAUGUAAAAAAAAAAAAAGUCCUCAGGACGUAGAAGGCGACGCAA [JR_Exc003_Sub401]; 16.6 nM

Let us examine a further case.
Tell me the measured apparent KD of MS2 coat protein of AGCUAGUGAGGAUAUACGAACAUGUCAAAAGACGUGAAGAAACAUGAGGAUCACCCAUGUAGAAGGCACUAGCA [Mat - Exclusion 2 - JL-Eli mod - D55] , please.
15.5 nM

---

Reported apparent KD of K4 kissing-loop reporter values for the following sequences.
Tested on: K4 kissing-loop RNA reporter;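 further: bound reporter read as fluorescence of individual clusters on recovered sequencing chips by microscopy, with normalized cluster intensities fitted with a binding model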
experimental-details: apparent KD of K4 kissing-loop reporter; higher = weaker reporter binding
experimental-context: Eterna round: R107; input ligand: theophylline 20 uM
Answer with a number only, understood to be in µM.

Tell me the measured apparent KD of K4 kissing-loop reporter of AAAUAAAUGGCGGCCGCCACUGAACGCCUCCGCGUGGGUAUAUAGUGAUGUUAUAUGGCCGCCAUCAGGACCGGGCCAAAUAAAA [#08 K4 Tryptophan B Same State] , please.
0.377

---

System: MS2 coat protein
experimental-details: apparent KD of MS2 coat protein; designed switch direction (-1 OFF switch, 1 ON switch): -1; higher = weaker reporter binding
experimental-context: input ligand: none
Param threshold (0.03 µM) applies to apparent KD of MS2 coat protein; output criterion met when value >= threshold, criterion not met when value < threshold.

1. GAUCAGUCAGGAUAUCAAUCCGCCUGUGAUACGCAGGCGGCUGAGAAGGGACAUGAGGAUCACCCAUGUAAAGA [jl-ex4-4.22 ViennaUCT mod] (Eterna round: R97, puzzle: Exclusion 4); criterion met
2. ACAUGAGGAUCACCCAUGUUUGGCUGGUCGUCUCCGGCUGUCGAGGAUAUAGUACGGUAUCCGCGCUAGAAGGUGAGGGCCGGC [Raxeorer] (Eterna round: R96, puzzle: Exclusion NG 3); criterion not met
3. GAUUAGAUAGGAUAUACAGGCUCGUCUUUAUAUUGAUCCCGACAUGAGGAUCACCCAUGUAGAAGGAUUAGAUU [Mod 30 - Jieux - Exclusion 2] (Eterna round: R97, puzzle: Exclusion 2); criterion not met
4. GGUUAGAUGGUAGGAUAUCCAUAUCGAGUGACCCUUUCAUAACAUGAGGAUCACCCAUGUCGGUGGGAGAAGGGCCGUACGGCG [salish99_ExNG02_R04_011] (Eterna round: R96, puzzle: Exclusion NG 2); criterion met
5. GCUGCUAGAGGAUAUACAUGAGGAUCACCCAUGUGAAAUUAUAGUGAGGAAAUGAAAAGUAGAAGGCUAGUAGA [Mod of Mat 16 - Jieux - Exclusion 3] (Eterna round: R97, puzzle: Exclusion 3); criterion met
6. AAACAAGCAACGAGAUCCCACAUGAGGAUCACCCAUGUCAACUGGAGUUUUAAAUCUUUAGGCUCGUUUUAUAACAA [S_tov1_V1.2] (Eterna round: R97, puzzle: Sensor, turn-off variant 1); criterion met
7. UCUCGCUGGCGAGGAUAUCCUGUGCGGUUCCGGCUCGUGUCUGUUACAUGAGGAUCACCCAUGUGGGAGAAGGUGCCUGUGGCC [Design 95] (Eterna round: R96, puzzle: Exclusion NG 2); criterion not met
8. GACCACUCAGGAUAUCGGACGGGAAACAUGAGGAUCACCCAUGUGAUGCUGAUAUUCGCACGAGAAGGGAGAAUGA [EX5 B.21] (Eterna round: R97, puzzle: Exclusion 5); criterion not met

Determine whether this sequence has apparent KD of MS2 coat protein no lower than 0.03 µM: ACGCAUUGCCUUUGGUAGUGCGUAACAUGAGGAUCACCCAUGUAGGAUAUGGUAGGCUUUGCUUACCAGAAGGACAUAAUAAUU [JL ENG3 1.01] (Eterna round: R96, puzzle: Exclusion NG 3)
criterion not met

What about this sequence? UACAUGAGGAUCACCCAUGUUUUGUCGUGUAUGGUAUUUAUCUAGGAUAUCAAUUUAGUUACUUAUGAGAAGGAGAAUAUUAAU [JMF's solution 77] (Eterna round: R96, puzzle: Exclusion NG 3)
criterion met

What about this sequence? AACAAGCUUUAAAGAUCCUACAUGAGGAUCACCCAUGUGCUCGUCUUGUAACGUACUGUGACGAAAGUCACGGUACG [JL TOV1 3.27] (Eterna round: R97, puzzle: Sensor, turn-off variant 1)
criterion met

What about this sequence? UUUUCAUAUGAAGGAUAUACUUAACAUGAGGAUCACCCAUGUGGUGUUGUGAGUGAGUGAGUUUAGUAGAAGGUCAAGUAUUUU [JMF's solution 48] (Eterna round: R96, puzzle: Exclusion NG 2)
criterion met
